All figures here come from ChEMBL document CHEMBL1135989.

TESTED SYSTEM: Vesicular glutamate transporter 3 (Rattus norvegicus, UniProt Q7TSF2)
METHOD DESCRIPTION: Compound was evaluated for competitive inhibition against Vesicular glutamate transporter (VGLUT), and Ki value was reported,.using Cheng-Prushoff equation
ENDPOINT LABEL: Ki (µM)
Express your answer in µM, writing the number without its unit.

Prompt: # get_value(readout='Ki', item= O=C(O)c1cc(C(=O)O)c2cc(/N=N/c3ccccc3)ccc2n1 )
Completion: 288

---

TESTED SYSTEM: Vesicular glutamate transporter 3 (Rattus norvegicus)
Sequence (Q7TSF2 whole entry): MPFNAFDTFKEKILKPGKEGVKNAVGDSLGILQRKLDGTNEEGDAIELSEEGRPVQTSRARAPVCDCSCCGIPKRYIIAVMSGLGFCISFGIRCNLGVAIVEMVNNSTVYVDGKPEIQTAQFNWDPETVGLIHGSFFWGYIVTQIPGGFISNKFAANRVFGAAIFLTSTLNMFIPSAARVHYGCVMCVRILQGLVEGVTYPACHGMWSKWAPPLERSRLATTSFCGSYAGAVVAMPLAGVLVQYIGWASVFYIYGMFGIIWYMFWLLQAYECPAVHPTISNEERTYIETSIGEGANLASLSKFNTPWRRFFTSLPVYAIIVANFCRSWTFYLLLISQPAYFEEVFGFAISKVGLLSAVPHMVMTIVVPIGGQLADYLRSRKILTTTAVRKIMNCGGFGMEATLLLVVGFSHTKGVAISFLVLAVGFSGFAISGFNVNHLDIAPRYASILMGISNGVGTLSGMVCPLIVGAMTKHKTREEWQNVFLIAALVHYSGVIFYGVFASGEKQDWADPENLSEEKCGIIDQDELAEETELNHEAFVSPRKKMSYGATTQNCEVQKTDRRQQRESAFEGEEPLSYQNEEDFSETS
METHOD DESCRIPTION: Estimated inhibitory conc. against Vesicular glutamate transporter (VGLUT), using Cheng-Prushoff equation
Values of Ki strictly less than 100 µM map to y, and values of at least 100 µM map to n.

Prompt: Identify whether the molecule O=C(O)c1cc(C(=O)O)c2cc(OCCc3ccccc3)ccc2n1 records Ki below 100 µM.
Completion: n

Prompt: Let us now turn to O=C(O)c1cc(C(=O)O)c2cc(/C=C/c3ccc(-c4ccccc4)cc3)ccc2n1
Completion: y

Prompt: Let us now turn to O=C(O)c1cc(C(=O)O)c2cc(OCc3ccccc3)ccc2n1
Completion: n

Prompt: Let us now turn to O=C(O)c1cc(C(=O)O)c2cc(CCc3ccccc3)ccc2n1
Completion: n

Prompt: Let us now turn to O=C(O)c1cc(C(=O)O)c2cc(-c3ccc(-c4ccccc4)cc3)ccc2n1
Completion: y

Prompt: Let us now turn to O=C(O)c1cc(C(=O)O)c2cccc(O)c2n1
Completion: n

Prompt: Let us now turn to O=C(O)c1cc(C(=O)O)c2cc(/C=C/c3ccccc3)ccc2n1
Completion: n
